- Tested on: Peripheral blood mononuclear cells (PBMC)
- assay: Cytokine profiles (IL-2, IFN-γ, IL-4 cDNA) by PCR in a primary 36 hour PBMC culture
- Assay type: cell-based, human
- Design: key: fold over medium control; undetectable control set to 1.00
- assay_setup: Patient 409 primary 36 hour culture; 20 micrograms TRFP/ml or 50 micrograms peptide/ml; medium not detectable, lowest measurable response set at 1.00
observable: STIMULATION INDEX IL-2

Guide cases for STIMULATION INDEX IL-2, answers given:
| substance | observable | obs_value |
| --- | --- | --- |
| Fel 17: TRFP chain 2 peptide, amino acids 12 - 33 (DVFFAVANGNELLLDLSLTKVN; UniProt P30440 29-50, looked up, fragment) | STIMULATION INDEX IL-2 | 315.1 |
| Fel 25: TRFP chain 2 peptide, amino acids 49 - 68 (YVENGLISRVLDGLVMTTIS; UniProt P30440 66-85, looked up, fragment) | STIMULATION INDEX IL-2 | 2.9 |
| Fel 29: TRFP chain 2 peptide, amino acids 74 - 92 (MGEAVQNTVEDLKLNTLGR; UniProt P30440 91-109, looked up, fragment) | STIMULATION INDEX IL-2 | 1.2 |
| Fel 8: TRFP chain 1 peptide, amino acids 1 - 30 (EICPAVKRDVDLFLTGTPDEYVEQVAQYKA; UniProt P30438 23-52, looked up, fragment) | STIMULATION INDEX IL-2 | 1.0 |

Specify reported STIMULATION INDEX IL-2 for the substance shown: Fel 14: TRFP chain 1 peptide, amino acids 18 - 43 (PDEYVEQVAQYKALPVVLENARILKN; UniProt P30438 40-65, looked up, fragment)
106.9

Data origin: patent EP0500785B1
